The following compounds are shown together with reported Her2 level values.
# measured-target: Receptor tyrosine-protein kinase erbB-2 (Homo sapiens) (UniProt P04626)
# Sequence (P04626 whole entry, looked up): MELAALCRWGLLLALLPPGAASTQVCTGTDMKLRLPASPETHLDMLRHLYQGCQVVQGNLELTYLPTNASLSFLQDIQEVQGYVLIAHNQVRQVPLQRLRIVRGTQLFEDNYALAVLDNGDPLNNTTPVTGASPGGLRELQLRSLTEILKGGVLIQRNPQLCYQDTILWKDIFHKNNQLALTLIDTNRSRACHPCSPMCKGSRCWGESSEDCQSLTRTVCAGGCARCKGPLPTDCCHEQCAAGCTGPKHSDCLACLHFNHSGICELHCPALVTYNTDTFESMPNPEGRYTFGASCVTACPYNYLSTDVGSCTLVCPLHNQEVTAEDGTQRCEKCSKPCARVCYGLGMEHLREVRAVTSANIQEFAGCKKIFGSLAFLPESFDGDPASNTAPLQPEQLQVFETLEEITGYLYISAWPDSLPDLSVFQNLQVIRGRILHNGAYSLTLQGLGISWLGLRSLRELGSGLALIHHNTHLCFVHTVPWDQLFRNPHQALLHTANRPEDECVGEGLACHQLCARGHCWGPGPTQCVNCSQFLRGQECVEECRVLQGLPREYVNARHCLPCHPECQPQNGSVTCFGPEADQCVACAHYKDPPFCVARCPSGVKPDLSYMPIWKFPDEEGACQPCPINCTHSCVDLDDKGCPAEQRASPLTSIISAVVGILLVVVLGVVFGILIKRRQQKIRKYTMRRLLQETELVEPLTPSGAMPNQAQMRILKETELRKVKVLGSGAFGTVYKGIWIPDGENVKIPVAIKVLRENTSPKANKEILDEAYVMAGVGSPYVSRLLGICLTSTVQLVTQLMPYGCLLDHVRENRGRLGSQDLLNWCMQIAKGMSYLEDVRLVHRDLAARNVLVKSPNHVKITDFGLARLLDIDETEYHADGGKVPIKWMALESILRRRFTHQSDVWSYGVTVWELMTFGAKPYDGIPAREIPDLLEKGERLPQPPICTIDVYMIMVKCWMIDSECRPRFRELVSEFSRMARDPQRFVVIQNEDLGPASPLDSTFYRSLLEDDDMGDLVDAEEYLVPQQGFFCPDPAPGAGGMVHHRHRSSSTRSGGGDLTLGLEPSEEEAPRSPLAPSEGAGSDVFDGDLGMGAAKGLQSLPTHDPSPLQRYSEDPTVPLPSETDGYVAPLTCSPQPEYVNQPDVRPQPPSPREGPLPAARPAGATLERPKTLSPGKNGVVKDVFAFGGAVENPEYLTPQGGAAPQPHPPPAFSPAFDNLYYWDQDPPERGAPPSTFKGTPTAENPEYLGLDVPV
# assay-details: reducers of endogenous Her2 protein level, primary screen, SKBR3 breast tumor cells, AlphaScreen, ATP viability (AID 461);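 note: lower value means less Her2 protein in the cells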
# study-conditions: 18-24 h, at 10 µM, hits give low values
assay-readout: Her2 level (%)

INSERT INTO measurements (compound, assay_readout, value_observed) VALUES
  ('O=C(c1ccc2c(c1)c(=O)oc1ccccc12)N1CCCCC1', 'Her2 level', 86),
  ('Cc1nc(C)c(C(=O)C2=C(O)C(=O)N(CCN3CCOCC3)C2c2cccnc2)s1 (centres undefined)', 'Her2 level', 93),
  ('O=C(Nc1ccc(Cl)cc1C(=O)Nc1ccncc1)c1ccco1', 'Her2 level', 48.5),
  ('CCNC(=O)N(C)c1nncnc1C(=O)NC', 'Her2 level', 88);
